Cited source: BigSolDB 2.1

conditions: in n-hexane, 283.15 K
# solubility (mole fraction) listing for each entry below
Lab note: write the figure by itself, no unit.

{"input.smiles": "O=[N+]([O-])c1cccc(Cl)c1Cl", "solubility (mole fraction)": 0.0112}

Then there is this compound:
Note solubility (mole fraction) for the compound shown: `O=[N+]([O-])c1ccc(Cl)c(Cl)c1` 0.0425

* * *

details: in cyclohexane, 288.15 K
We begin with a simple list: items and their reported solubility (mole fraction).
Could you respond with only the numeric value?

{"input.smiles": "O=[N+]([O-])c1cccc(Cl)c1Cl", "solubility (mole fraction)": 0.0212}

Output solubility (mole fraction) of `O=[N+]([O-])c1ccc(Cl)c(Cl)c1` 0.0865

* * *

We begin with a simple list: items and their reported solubility (mole fraction).
conditions: in isopropanol, 278.15 K
Please give the numeric answer without any surrounding text.

Please report the measured solubility (mole fraction) for `O=[N+]([O-])c1ccc(Cl)c(Cl)c1` 0.0157

Entry `O=[N+]([O-])c1cccc(Cl)c1Cl` needs its solubility (mole fraction) filled in; supply it. 0.00992

* * *

Measured solubility (mole fraction), listed per entry for reference.
settings: in ethyl acetate, 303.15 K
// return just the number, without any unit appended

{"input.smiles": "O=[N+]([O-])c1cccc(Cl)c1Cl", "numeric.result": 0.682}

Now for a further molecule.
Report solubility (mole fraction) for `O=[N+]([O-])c1ccc(Cl)c(Cl)c1` 0.866

* * *

conditions: in n-butanol, 283.15 K
readout.kind: solubility (mole fraction)
Give a plain numeric answer without units written out.

{"input.smiles": "O=[N+]([O-])c1ccc(Cl)c(Cl)c1", "solubility (mole fraction)": 0.0486}

Moving on to the next molecule.
Identify solubility (mole fraction) associated with the molecule `O=[N+]([O-])c1cccc(Cl)c1Cl` 0.0401

* * *

Listed compounds paired with reported solubility (mole fraction)
details: in n-hexane, 293.15 K
Field format: numeric only.

{"input.smiles": "O=[N+]([O-])c1ccc(Cl)c(Cl)c1", "solubility (mole fraction)": 0.0634}

# next compound below
Output solubility (mole fraction) of `O=[N+]([O-])c1cccc(Cl)c1Cl` 0.0214

* * *

conditions: in n-butanol, 290.65 K
# reported solubility (mole fraction); entries follow
Give the figure only, with no unit attached.

{"input.smiles": "O=[N+]([O-])c1ccc(Cl)c(Cl)c1", "solubility (mole fraction)": 0.0665}

Continue with the next compound.
Indicate its recorded solubility (mole fraction); the compound in question is `O=[N+]([O-])c1cccc(Cl)c1Cl` 0.0527

* * *

settings: in isopropanol, 295.65 K
solubility (mole fraction) overview
Reply with the value as a number alone.

{"input.smiles": "O=[N+]([O-])c1cccc(Cl)c1Cl", "solubility (mole fraction)": 0.0336}

Alright, here's another molecule for you.
Check the records and state solubility (mole fraction) for `O=[N+]([O-])c1ccc(Cl)c(Cl)c1` 0.0615

* * *

details: in ethyl acetate, 283.15 K
Listed here: items and their measured solubility (mole fraction).
Just the number, please, no unit after it.

{"input.smiles": "O=[N+]([O-])c1ccc(Cl)c(Cl)c1", "numeric.result": 0.405}

Read off the recorded solubility (mole fraction) for `O=[N+]([O-])c1cccc(Cl)c1Cl` 0.331

* * *

Measured solubility (mole fraction) values are reported for all entries that follow.
conditions: in tetrachloromethane, 278.15 K
Give your answer as a number; write no unit.

{"input.smiles": "O=[N+]([O-])c1cccc(Cl)c1Cl", "numeric.result": 0.0619}

With those in mind, consider the next compound.
Complete the entry with solubility (mole fraction) for `O=[N+]([O-])c1ccc(Cl)c(Cl)c1` 0.129

* * *

details: in n-heptane, 303.15 K
readout.kind: solubility (mole fraction)
// keep it numeric: no unit symbol after the value

{"input.smiles": "O=[N+]([O-])c1ccc(Cl)c(Cl)c1", "numeric.result": 0.132}

Attention now shifts to the item below.
# return recorded solubility (mole fraction) for input `O=[N+]([O-])c1cccc(Cl)c1Cl` 0.038

* * *

conditions: in isopropanol, 290.65 K
readout.kind: solubility (mole fraction)

Supply reported solubility (mole fraction) belonging to this compound: `O=[N+]([O-])c1cccc(Cl)c1Cl` 0.0243

Give the value of solubility (mole fraction) reported for the following: `O=[N+]([O-])c1ccc(Cl)c(Cl)c1` 0.036

* * *

details: in cyclohexane, 283.15 K
readout.kind: solubility (mole fraction)
The reply should be a number, written without any unit.

{"input.smiles": "O=[N+]([O-])c1cccc(Cl)c1Cl", "numeric.result": 0.0184}

# return recorded solubility (mole fraction) for entry `O=[N+]([O-])c1ccc(Cl)c(Cl)c1` 0.0703

* * *

conditions: in n-heptane, 288.15 K
Here, each record is paired with measured solubility (mole fraction) data.
Answer with the value's number alone.

Identify the reported solubility (mole fraction) for the following entry. `O=[N+]([O-])c1ccc(Cl)c(Cl)c1` 0.0505

Please list solubility (mole fraction) recorded for the compound `O=[N+]([O-])c1cccc(Cl)c1Cl` 0.017

* * *

Reported solubility (mole fraction) is given for each of the following compounds.
settings: in n-hexane, 298.15 K

{"input.smiles": "O=[N+]([O-])c1ccc(Cl)c(Cl)c1", "readout.kind": "solubility (mole fraction)", "result": 0.0824}

Continue with the compound presented below.
Given `O=[N+]([O-])c1cccc(Cl)c1Cl` , respond with its solubility (mole fraction). 0.0245

* * *

A collection of molecules and their measured solubility (mole fraction)
conditions: in tetrachloromethane, 295.65 K

{"input.smiles": "O=[N+]([O-])c1cccc(Cl)c1Cl", "solubility (mole fraction)": 0.194}

For the molecule `O=[N+]([O-])c1ccc(Cl)c(Cl)c1` , give its measured solubility (mole fraction) value. 0.572

* * *

conditions: in n-propanol, 280.65 K
Listed here: items and their measured solubility (mole fraction).
Number only, please.

{"input.smiles": "O=[N+]([O-])c1ccc(Cl)c(Cl)c1", "solubility (mole fraction)": 0.0519}

Tell me measured solubility (mole fraction) for `O=[N+]([O-])c1cccc(Cl)c1Cl` please. 0.0247

* * *

conditions: in n-hexane, 303.15 K
readout.kind: solubility (mole fraction)
Lab note: write the figure by itself, no unit.

Name the recorded solubility (mole fraction) of the item `O=[N+]([O-])c1cccc(Cl)c1Cl` in your answer. 0.031

Provide one value: measured solubility (mole fraction) of `O=[N+]([O-])c1ccc(Cl)c(Cl)c1` 0.173

* * *

Entries and their solubility (mole fraction)
conditions: in cyclohexane, 285.65 K
Provide a numeric answer; units are not to be included.

{"input.smiles": "O=[N+]([O-])c1cccc(Cl)c1Cl", "solubility (mole fraction)": 0.0199}

Consider the additional compound presented here.
State its solubility (mole fraction): `O=[N+]([O-])c1ccc(Cl)c(Cl)c1` 0.0774

* * *

details: in n-heptane, 300.65 K
# Lookup of reported solubility (mole fraction) keyed by entry
Just the number.

{"input.smiles": "O=[N+]([O-])c1cccc(Cl)c1Cl", "solubility (mole fraction)": 0.0345}

Okay, now this molecule:
Return reported solubility (mole fraction). Input molecule: `O=[N+]([O-])c1ccc(Cl)c(Cl)c1` 0.0908

* * *

settings: in n-propanol, 293.15 K
readout.kind: solubility (mole fraction)

{"input.smiles": "O=[N+]([O-])c1cccc(Cl)c1Cl", "solubility (mole fraction)": 0.0387}

Could you now look at the following compound, please?
Provide only the value of recorded solubility (mole fraction) for `O=[N+]([O-])c1ccc(Cl)c(Cl)c1` 0.0819

* * *

molecules and their reported solubility (mole fraction)
conditions: in tetrachloromethane, 285.65 K

{"input.smiles": "O=[N+]([O-])c1ccc(Cl)c(Cl)c1", "solubility (mole fraction)": 0.302}

Now, please, on to the next molecule.
Given the molecule `O=[N+]([O-])c1cccc(Cl)c1Cl` , write its reported solubility (mole fraction). 0.11

* * *

Entries annotated with measured solubility (mole fraction)
conditions: in n-heptane, 278.15 K
I only need the number, thanks.

{"input.smiles": "O=[N+]([O-])c1cccc(Cl)c1Cl", "solubility (mole fraction)": 0.00633}

Please look at the following compound next.
Indicate the recorded solubility (mole fraction) value for this compound: `O=[N+]([O-])c1ccc(Cl)c(Cl)c1` 0.0296

* * *

conditions: in n-butanol, 280.65 K
readout.kind: solubility (mole fraction)
Write the number on its own, no unit after it.

{"input.smiles": "O=[N+]([O-])c1cccc(Cl)c1Cl", "solubility (mole fraction)": 0.0331}

# next molecule below
Could you please provide reported solubility (mole fraction) for `O=[N+]([O-])c1ccc(Cl)c(Cl)c1` ? Thanks! 0.0443

* * *

settings: in n-propanol, 283.15 K
// reported solubility (mole fraction) per item

{"input.smiles": "O=[N+]([O-])c1ccc(Cl)c(Cl)c1", "solubility (mole fraction)": 0.0537}

Check the records and state solubility (mole fraction) for `O=[N+]([O-])c1cccc(Cl)c1Cl` 0.0275
